Tested on: SF-295 CNS
test method notes: NCI tumour cell line growth inhibition, 48 h
outcome measure: GI50

# molecule, outcome measure, result
measured = [
    ("Nc1nc(N)c2c(n1)NC(c1sc(Cl)nc1Cl)CC(c1ccc3c(c1)OCO3)=N2 (stereo unspecified)", "GI50", "2210 nM"),
    ("Cn1cc(C2=C(c3cn(CCCCC(=N)N)c4ccccc34)C(=O)NC2=O)c2ccccc21", "GI50", "> 13700 nM"),
    ("Oc1ccc(Cl)cc1/C=N\\NC(=S)N/N=C/c1cc(Cl)ccc1O", "GI50", "3000 nM"),
    ("C=C(C)[C@@H]1CC[C@]2(C(=O)NC(C)=O)CC[C@]3(C)[C@H](CC[C@@H]4[C@@]5(C)CCCNC(C)(C)[C@@H]5CC[C@]43C)[C@@H]12", "GI50", "1810 nM"),
    ("Cc1cc(Nc2nc(-c3ccncc3)nc3ccccc23)n[nH]1", "GI50", "17400 nM"),
    ("[CH3][Sn]1([CH3])[O]CC(COc2cc(Cl)c(Cl)cc2Cl)[O]1 (stereo unspecified)", "GI50", "38800 nM"),
    ("COc1ccc(C2=NC(c3ccc(Cl)cc3)C(c3ccc(Cl)cc3)N2C(=O)N2CCNC(=O)C2)c(OC(C)C)c1 (stereo unspecified)", "GI50", "1810 nM"),
    ("CN1CCN(c2ccc3nc(-c4ccc(OCCCCN5CCN(CCCCN6C(=O)c7cccc8cccc(c78)C6=O)CC5)cc4)[nH]c3c2)CC1", "GI50", "62400 nM"),
    ("C=C(C)[C@@H]1CC[C@]2(CO)CC[C@]3(C)[C@H](CC[C@@H]4[C@@]5(C)CC[C@H](NCO)C(C)(C)[C@@H]5CC[C@]43C)[C@@H]12", "GI50", "873 nM"),
    ("CCCCCCCCCCSC(=N)N", "GI50", "1720 nM"),
]

Tell me GI50 of CN=C(N)N/N=C(\C)c1ccc2c(c1)Cc1ccccc1-2 when tested on SF-295 CNS.
1900 nM

====

Test system: HOP-92 NSCLC
test method notes: NCI tumour cell line growth inhibition, 48 h
Where a SMILES comes first, the peptide text is derived from it. The star is where a group is joined. Trt = c1ccc(C(c2ccccc2)(c2ccccc2)*)cc1; Cbz = O=C(OCc1ccccc1)*
Please respond with reported TGI for every item in the list.
Answers are plain numbers, in µM.

# example entries with known answers
# compound, reading unit, TGI
measured = [
    ("CCCCC[C@H]1CCCCCCCCCC(=O)OC2C(O[C@@H]3OC(C)[C@H](OC(=O)[C@@H](C)CC)C(O[C@@H]4OC(C)[C@H](O)C(O)[C@@H]4O)[C@@H]3OC(=O)[C@H](C)CC)[C@H](OC3C(O)[C@@H](O)C(C)O[C@H]3O1)OC(CO)[C@H]2O (some centres not stated)", "µM", 37.1),
    ("COC(=O)C(CSC(c1ccccc1)(c1ccccc1)c1ccccc1)NC(=O)C(CC(N)=O)NC(=O)OCc1ccccc1 (stereo not drawn) (Cbz-Asn-Cys(Trt)-OMe; configuration not given here)", "µM", 14.9),
    ("O=C(/C=C/c1ccco1)c1ccc(Nc2nc(Nc3ccc(F)cc3)nc(Nc3ccc(F)cc3)n2)cc1", "µM", 41.6),
    ("C=CC[C@H](N=C(SC)SC)C(=O)N1C(=O)N(C)[C@@H](C)[C@H]1c1ccccc1", "µM", 68.3),
]

Provide reported TGI for each item, in the same order as listed.
1. CCOC(=O)C1=C(C)N(Cc2ccccc2)C2(O)C=CC(=O)C3=C(O)c4ccccc4C(=O)C312 (configuration not stated)
2. COc1ccc(C2=Nc3c/c(=C\c4c(O)[nH]c5cc(Cl)ccc45)ccc3=N2)cc1
3. O=S(=O)(O)SCCNCCCCCC1CCCCC1
4. O=C1c2cc([N+](=O)[O-])sc2C(=O)c2c([N+](=O)[O-])csc21
5. O=C(/C=C/c1cccc2ccccc12)Nc1ncc(Cc2ccccc2)s1
6. Cc1ccc2nc(NC(=O)C(=O)CC(=O)c3cccc4ccccc34)sc2c1

[41.8, 9.83, 39.9, 0.82, 4.73, 69.9]

Provide reported TGI for each item, in the same order as listed.
1. COc1ccc2c(c1)/C(=N/OC(C)=O)c1c-2cnc2ccccc12
2. Cc1ccc(-c2n[nH]c(=O)c3noc(-c4ccc(C)cc4)c23)cc1
3. COc1ccc2c(c1)CCC/C2=N\NS(=O)(=O)c1c(C)cc(C)cc1C

1. 37.2
2. 0.962
3. 54.7

====

Please respond with reported TGI for every item in the list.
Test system: SNB-19 CNS
test method notes: NCI tumour cell line growth inhibition, 48 h

# compound, TGI
data = [
    ("CN(C(=O)CNC(=O)/C=C/c1cccc(Cl)c1)C1CCS(=O)(=O)CC1", "> 100 µM"),
    ("CN(C)CCNC(=O)c1c(O)ccc2c1c1c(n2CCc2ccccc2)C(=O)c2ccccc2C1=O", "23.8 µM"),
    ("O=C1C(c2c(O)[nH]c3ccc(S(=O)(=O)NCCO)cc23)=Nc2ccccc21", "> 100 µM"),
    ("O=c1cc(N2CCCC2)[nH]c(=O)n1-c1ccc(Cl)cc1", "> 100 µM"),
    ("CCOC(=O)C1=C(C)N(C2OC(COC(=O)c3ccccc3)C(OC(=O)c3ccccc3)C2OC(=O)c2ccccc2)C(=S)NC1c1ccccc1 (stereo not drawn)", "> 100 µM"),
    ("O=C(N/N=C\\c1ccc([N+](=O)[O-])s1)c1ccncc1", "> 77.4 µM"),
    ("O=Cc1ccc(N2CCN(c3ccc(C=O)cc3)CC2)cc1", "> 100 µM"),
    ("COc1ccc(C2=Nc3c/c(=C\\c4c(O)[nH]c5cc(Cl)ccc45)ccc3=N2)cc1", "41.1 µM"),
    ("Cc1ccc(S(=O)(=O)Nn2c(O)c(C#N)c(-c3ccc([N+](=O)[O-])cc3)c(C#N)c2=O)cc1", "> 100 µM"),
    ("O=c1[nH]c2ccc(CC(=S)N3CCCCC3)cc2s1", "> 100 µM"),
]

Provide reported TGI for each item, in the same order as listed.
1. O=C(/C=C/c1ccc([N+](=O)[O-])cc1)c1cccc(Nc2nc(Nc3ccccc3)nc(Nc3ccccc3)n2)c1
2. CCCCC[C@H]1CCCCCCCCCC(=O)OC2C(O[C@@H]3OC(C)[C@H](OC(=O)[C@@H](C)CC)C(O[C@@H]4OC(C)[C@H](O)C(O)[C@@H]4O)[C@@H]3OC(=O)[C@H](C)CC)[C@H](OC3C(O)[C@@H](O)C(C)O[C@H]3O1)OC(CO)[C@H]2O (stereo partly drawn)
3. Cc1csc(-n2c(C)nc3cc(Cl)ccc3c2=O)n1
4. CCOC(C)OC1CC(n2cc(C)c(=O)[nH]c2=O)OC1CO (stereo not drawn)

1. > 100 µM
2. 32.1 µM
3. > 100 µM
4. > 100 µM

====

Tested on: HT29 colon
test method notes: NCI tumour cell line growth inhibition, 48 h
outcome measure: TGI

Provide reported TGI for each item, in the same order as listed.
1. Cn1nc(-c2ccccc2)c(C(=O)/C=C/c2ccc(Cl)cc2)c(N2CCCC2)c1=O
2. CCOC(=O)C1=C(C)N(Cc2ccccc2)C2(O)C=CC(=O)C3=C(O)c4ccccc4C(=O)C312 (configuration not stated)

15.3 µM
> 100 µM

====

System: UACC-257 melanoma
test method notes: NCI tumour cell line growth inhibition, 48 h
outcome measure: TGI

Provide reported TGI for each item, in the same order as listed.
1. CCOC(=O)C(C)N1C(=O)c2ccccc2S1(=O)=O (stereo not drawn)
2. CC(=O)Nc1ccc(-c2nnc(SCC(=O)Nc3ccc(Cl)cc3)o2)cc1

1: > 100 µM; 2: 40.9 µM

Provide reported TGI for each item, in the same order as listed.
1. C#CCOCn1cnc2ncnc(N)c21
2. Cn1cc(NC(=O)Nc2cc(C(=O)Nc3cc(C(=O)Nc4cc(S(=O)(=O)O)c5cc(S(=O)(=O)O)cc(S(=O)(=O)O)c5c4)n(C)c3)n(C)c2)cc1C(=O)Nc1cc(C(=O)Nc2cc(S(=O)(=O)O)c3cc(S(=O)(=O)O)cc(S(=O)(=O)O)c3c2)n(C)c1
3. CC/C(N)=N\NC(=O)OC(C)(C)C

> 100 µM
> 100 µM
> 100 µM

====

System: SF-295 CNS
test method notes: NCI tumour cell line growth inhibition, 48 h
outcome measure: TGI

# example entries with known answers
# compound, TGI
rows = [
    ("COC(=O)C(=O)C(C(=O)C(=O)Nc1cc(Cl)c(Cl)cc1Cl)c1nc2ccc([N+](=O)[O-])cc2[nH]c1=O (centres undefined)", "> 100 µM"),
    ("COc1cc2c3c(cc(Cl)nc3c1OC)C(O)(CC(=O)c1ccccc1)C(=O)N2 (centres undefined)", "32.8 µM"),
    ("O=[N+]([O-])C(C=C(n1nnc2ccccc21)n1nnc2ccccc21)=C(n1nnc2ccccc21)n1nnc2ccccc21", "> 100 µM"),
]

From here, focus on the item given below.
Give the reported value of TGI for this record: CCCN1CCC=C(c2ccc(Nc3nc(Nc4ccccc4C(N)=O)c4cc[nH]c4n3)c(C)c2)C1
> 25 µM
